These measurements were taken from ChEMBL document CHEMBL1201862.

Catalogue of compounds with associated GI50
- Tested on: UACC-257
- ASSAY_DETAILS: NCI tumour cell line growth inhibition, 48 h
Active and inactive are the calls of the source. Rule as the data show it: active = GI50 up to about 1.1 µM and inactive = higher.

// known answers, use as guide
| COMPOUND | RESULT |
| --- | --- |
| O=[N+]([O-])c1ccc(-c2nc3ccccc3o2)cc1 | > 100 µM (inactive) |
| c1ccc(CN2CCC(=NN3CCCCC3)CC2)cc1 | 47.1 µM (inactive) |
| C=CCC(CNC(=O)OCc1ccccc1)OC(=O)OCc1ccccc1 (stereo unspecified) | 73.3 µM (inactive) |
| CCc1ccccc1-n1c2nc(=O)n(C)c(=O)c-2nc2ccccc21 | 5.11 µM (inactive) |
| COC1=C2C[C@](OC)(C#CC=CC#CC2O)CC1(C)C (stereo partly specified) | > 100 µM (inactive) |
| CCOC(=O)[C@H]1CSC[C@@H](C(=O)OC)N1 | > 100 µM (inactive) |
| O=C1N/C(=N/N=C\C(O)C(O)C(O)C(O)CO)N/C1=C/c1ccc(Cl)cc1 (stereo unspecified) | > 100 µM (inactive) |
| CC[C@@H](CCCC[C@@H]1CC[C@H]2CC(=O)C[C@@H]12)OC | 69.5 µM (inactive) |
| CCn1c(SCC(=O)NNC(=S)Nc2ccc([N+](=O)[O-])cc2)nc2ccccc2c1=O | > 100 µM (inactive) |
| CCOC(=O)/C=C/c1ccccn1 | > 100 µM (inactive) |

Fill in reported GI50 for this entry: CCOc1ccc(NC(=O)C(=O)CC(=O)C2=C(C)Nc3ccccc3S2)cc1
> 50 µM (inactive)

Check the records and state GI50 for CN1CC(=O)N2Cc3ccccc3-n3cccc3C2C1 (stereo unspecified)
> 100 µM (inactive)

Give the reported value of GI50 for this record: O=[N+]([O-])c1ccc(Cl)cc1C1ON=C(c2ccccc2)N1C12CC3CC(CC(C3)C1)C2 (stereo unspecified)
> 100 µM (inactive)

Please give the documented GI50 of O=C(Nc1ccccn1)c1cc2c(cc1Cl)Sc1nccn1S2(=O)=O
33.7 µM (inactive)

Please list GI50 recorded for the compound C/C(=C\COP(=O)(O)OP(=O)(O)O)CCCOCc1ccccc1
38.4 µM (inactive)

Give a short answer stating reported GI50 for CCC(CCCC[C@@H]1CC[C@H]2CC(=O)C[C@@H]12)OC (stereo partly specified) .
56.6 µM (inactive)

* * *

- System: LXFL 529
- ASSAY_DETAILS: NCI tumour cell line growth inhibition, 48 h
Calls of active or inactive are those of the source. Cut-off read from the data, not from the text of the source: active = GI50 up to about 1.1 µM and inactive = higher.
Recorded measurements of GI50, one per entry

| MOLECULE | GI50 |
| --- | --- |
| CN(C)NC(=S)NC12CC3CC(CC(C3)C1)C2 | > 100 µM (inactive) |
| COc1ccc2c(c1)c[n+](C)c1c3cc(OC)c(OC)cc3ccc21 | 1.96 µM (inactive) |
| C#CCNC(=O)NC(CCCNC(=O)OCc1ccccc1)C(=O)OCc1ccccc1 (stereo not drawn) | > 100 µM (inactive) |
| C[N+](C)(C)CC1CCC(C[N+](C)(C)C)C1=NO (stereo not drawn) | > 100 µM (inactive) |
| CCOC(=O)/C=C/c1ccccn1 | > 100 µM (inactive) |
| O=C(NCCCCCCCCCCCCNC(=O)c1cnc2ccccc2n1)c1cnc2ccccc2n1 | 33.7 µM (inactive) |

For the molecule N#CC1C[C@@H]2CC3(CCC2CN1C(=O)c1ccccc1)OCCO3 (stereo partly drawn) , give its measured GI50 value.
> 100 µM (inactive)

Return GI50 (reported value) for this molecule: Nc1c(-c2ccccc2-c2c(N)[n+]([O-])c3ccccc3[n+]2[O-])[n+]([O-])c2ccccc2[n+]1[O-]
6.19 µM (inactive)

* * *

- Test system: LXFL 529
- ASSAY_DETAILS: NCI tumour cell line growth inhibition, 48 h
The source made the active and inactive calls. Rule as the data show it: active = GI50 up to about 1.1 µM and inactive = higher.
Here, each record is paired with measured GI50 data.

| COMPOUND | TARGET_OR_SYSTEM | GI50 |
| --- | --- | --- |
| CC(=O)N(N=O)c1ccc(N(N=O)C(C)=O)cc1 | LXFL 529 | > 100 µM (inactive) |
| COc1ccc2c(c1)CCc1cnn(C3OC(COC(C)=O)C(OC(C)=O)C(OC(C)=O)C3OC(C)=O)c1-2 (stereo not given) | LXFL 529 | 19.1 µM (inactive) |
| c1ccc(COc2cccc3ccc[n+](Cc4ccccc4)c23)cc1 | LXFL 529 | 3.62 µM (inactive) |
| COc1cc(C=O)c(-c2cc(OC)c(OC)cc2C=O)cc1OC | LXFL 529 | > 100 µM (inactive) |

Indicate its recorded GI50; the compound in question is CC(=O)Nc1ccc(/C=C2\N=C(c3ccccc3)OC2=O)cc1
> 100 µM (inactive)

* * *

- Test system: KM12
- ASSAY_DETAILS: NCI tumour cell line growth inhibition, 48 h
Active and inactive are the calls of the source. No stated cut-off is given here; in the data, active = GI50 up to about 1.1 µM and inactive = higher.
TEST_READOUT: GI50

Recorded GI50, per entry:
| COMPOUND | TARGET_OR_SYSTEM | GI50 |
| --- | --- | --- |
| CCOC(=O)[C@H]1CSC[C@@H](C(=O)OC)N1 | KM12 | > 100 µM (inactive) |
| CC(=O)N1CC(C)(C)c2c1cc(C)c(O)c2C | KM12 | > 100 µM (inactive) |
| O=C1CCCC1C(O)(C(F)(F)Cl)C(F)(F)Cl (centres undefined) | KM12 | > 10 µM (inactive) |
| Cn1c(S)nnc1CNc1ccc(-c2nnc(S)n2C)cc1 | KM12 | > 100 µM (inactive) |
| CCCCCCCCCCCCCCCCCCOCC(C[N+]1(C)CCC(O)CC1)OCC (centres undefined) | KM12 | 1.84 µM (inactive) |

Recall the reported GI50 of COc1oc(C2C/C(=C/C(C)=C/C(C)=C/C(C)=C/c3ccc([N+](=O)[O-])cc3)CO2)c(C)c(=O)c1C (centres undefined) on KM12 and write it down.
1.58 µM (inactive)

Lab note: KM12 assay, enter GI50 for COc1cc2cc3c4c(cc(OC)c(OC)c4c2cc1OC)CCN3C(=O)CCC(=O)NCCCN(C)C here
67.1 µM (inactive)

Under KM12: report GI50 of O=S(=O)(/C=C/CS(=O)(=O)c1ccccc1)c1ccccc1 .
13.8 µM (inactive)

// output GI50; input NC1=NN(c2ccccc2)C(=O)C1C(=O)C(=O)Nc1cccc(C(F)(F)F)c1 (centres undefined) ; system KM12
> 100 µM (inactive)

Give GI50 only, for COc1ccc(C2CC(c3c(C)nn(-c4ccccc4)c3-c3ccc(C)cc3O)=NN2c2ccccc2)cc1 (centres undefined) , using KM12 data.
3.33 µM (inactive)

Enter measured GI50, system KM12, for the compound shown: O=C(NCCCCCCCCCCCCNC(=O)c1cnc2ccccc2n1)c1cnc2ccccc2n1
> 100 µM (inactive)

Report GI50 under test system KM12 for NC(=S)N/N=C1/C(=O)N(c2ccccc2)C(=O)C1C(=O)Nc1ccccc1 (centres undefined) .
> 100 µM (inactive)

Give the observed GI50 of CSC1(CC(=O)N2CCCCC2)C(=O)Nc2ccccc21 (centres undefined) for KM12.
> 100 µM (inactive)

Quote GI50 with test system KM12 for COc1cc(CNc2nc3ccc(C(F)(F)F)cc3nc2-c2ccccc2)cc(OC)c1OC
24.6 µM (inactive)

* * *

Reported GI50 values for the following molecules.
- Test system: CAKI-1
- ASSAY_DETAILS: NCI tumour cell line growth inhibition, 48 h
Activity calls are given as the source filed them. Cut-off read from the data, not from the text of the source: active = GI50 up to about 1.1 µM and inactive = higher.

Recorded results for 2 molecules are shown here.
| MOLECULE | GI50 |
| --- | --- |
| CCOC(=O)N1CCC2(CC1)C[C@](C)(C(C)=O)C(C)O2 (stereo not given in full) | > 100 µM (inactive) |
| C/C(=C\COP(=O)(O)OP(=O)(O)O)CCCOCc1ccccc1 | > 100 µM (inactive) |

Using known records, supply GI50 for C=C(C)[C@H]1C2=CC(C)=C(O2)[C@@H](O[C@@H]2c3oc(cc3C)[C@H](C(=C)C)[C@H]3C=C(CC[C@H]2C(=C)C)C(=O)O3)[C@H](C(=C)C)CCC2=C[C@H]1OC2=O
> 100 µM (inactive)

Consider the molecule COc1ccc(/C=C2\N=C(N3CCOCC3)NC2=O)cc1 and give its recorded GI50.
> 100 µM (inactive)

* * *

- Test system: 786-0
- ASSAY_DETAILS: NCI tumour cell line growth inhibition, 48 h
Activity calls are given as the source filed them. No stated cut-off is given here; in the data, active = GI50 up to about 1.1 µM and inactive = higher.
Reported values of GI50 for individual entries

Consider the worked cases shown below.
| COMPOUND | GI50 |
| --- | --- |
| CSC1(CC(=O)N2CCCCC2)C(=O)Nc2ccccc21 (stereo not drawn) | > 100 µM (inactive) |
| COc1cc(C=O)c(-c2cc(OC)c(OC)cc2C=O)cc1OC | > 100 µM (inactive) |

Next up:
Answer briefly: GI50 recorded on 786-0 for O=S(=O)(c1ccc(/N=C2\NC(c3ccc(O)cc3)(c3ccccc3O)c3ccccc32)cc1)c1ccc(/N=C2/NC(c3ccc(O)cc3)(c3ccccc3O)c3ccccc32)cc1 (stereo not drawn)
3.02 µM (inactive)
